target_or_system: hQC (Homo sapiens)
assay_overview: Inhibitor assay for glutaminyl cyclase activity (fluorometric, H-Gln-βNA / H-Gln-AMC)
Format: biochemical
condition_context: read-out: IC50
pIC50: −log10 of the molar value.
endpoint_name: pIC50

A selection of reference data follows.
compound	pIC50
CCCCC1C(CC)=C(O)C(=O)N1CCCn1ccnc1 (centres unmarked)	5.66
Cc1cccc(C2C(C(=O)CC(C)C)=C(O)C(=O)N2c2ccc3[nH]cnc3c2)c1 (centres unmarked)	6.24
CCCCCC(=O)C1=C(O)C(=O)N(c2ccc3[nH]cnc3c2)C1C1CCOC1 (centres unmarked)	5.61
CC1=C(O)C(=O)N(c2ccc3[nH]cnc3c2)C1c1ccc2nsnc2c1 (centres unmarked)	5.99
CCCC(=O)C1=C(O)C(=O)N(c2ccc3[nH]cnc3c2)C1c1ccc2cccc(O)c2n1 (centres unmarked)	8.40
CC1=C(O)C(=O)N(CCCn2ccnc2)C1c1c[nH]c2ccccc12 (centres unmarked)	6.40
Cc1ccc(C2C(c3ccc(O)cc3)=C(O)C(=O)N2CCCn2ccnc2)cc1C (centres unmarked)	7.40
CCC1=C(O)C(=O)N(c2ccc3[nH]cnc3c2)C1c1coc2ccc(C)cc2c1=O (centres unmarked)	7.40

[1] CCCCCC1=C(O)C(=O)N(CCCn2ccnc2)C1C1CC1 (centres unmarked)
[2] CC(C)(C)C(=O)C1=C(O)C(=O)N(c2ccc3[nH]cnc3c2)C1
**Q:** // pick min by pIC50: 1 , 2 Lab log: write the label of the selected item as the result.
**A:** 2
(2: 5.21, 1: 6.40)

====

target_or_system: hQC (Homo sapiens)
assay_overview: Inhibitor assay for glutaminyl cyclase activity (fluorometric, H-Gln-βNA / H-Gln-AMC)
Assay type: biochemical
condition_context: compound from preparative synthesis, purified; read-out: IC50 hQC
pIC50: −log10 of the molar value.
endpoint_name: pIC50

[a] CCCC(=O)C1=C(O)C(=O)N(c2ccc3[nH]cnc3c2)C1c1ccc2nonc2c1 (centres unmarked) [Compound 421]
[b] O=C1C(O)=C(c2ccccc2)C(c2ccccc2F)N1CCCn1ccnc1 (centres unmarked) [Compound 110]
[c] O=C1C(O)=C(c2c[nH]c3ccccc23)C(c2ccccc2)N1CCCn1ccnc1 (centres unmarked) [Compound 127]
**Q:** Ordering: ascending pIC50. Put the labels in the requested order and list them out.
**A:** b, c, a
(b: 6.13, c: 6.36, a: 6.61)

[P] CSCC1=C(O)C(=O)N(c2ccc3[nH]cnc3c2)C1c1cc(Cl)ccc1O (centres unmarked) [Compound 336]
[Q] O=C1C(O)=C(c2ccc(O)cc2)C(c2ccc3[nH]ccc3c2)N1CCCn1ccnc1 (centres unmarked) [Compound 155]
[R] O=C(C1=C(O)C(=O)N(c2ccc3[nH]cnc3c2)C1c1ccc(Cl)c(Cl)c1)C1CCCCC1 (centres unmarked) [Compound 372]
[S] COc1ccc(C2C(c3ccccc3)=C(O)C(=O)N2CCCn2ccnc2)cc1 (centres unmarked) [Compound 86]
[T] O=C(C1=C(O)C(=O)N(c2ccc3[nH]cnc3c2)C1c1ccc2nsnc2c1)C1CC1 (centres unmarked) [Compound 287]
**Q:** Rank entries according to their pIC50, from the largest number down. Put the labels in the requested order and list them out.
**A:** T, R, P, Q, S
(T: 9.15, R: 7.88, P: 6.81, Q: 6.43, S: 5.91)

[a] Cc1ccc(C2C(c3ccc(O)cc3)=C(O)C(=O)N2CCCn2ccnc2)cc1C (centres unmarked) [Compound 158]
[b] O=C1C(O)=C(c2ccc(O)cc2)C(C2CCC=CO2)N1CCCn1ccnc1 (centres unmarked) [Compound 163]
**Q:** For the two items a and b , which reports the higher pIC50 value? Lab log: write the label of the selected item as the result.
**A:** a
(a: 6.67, b: 6.25)

[P] CC(=O)C1=C(O)C(=O)N(c2ccc3[nH]cnc3c2)C1c1cc(Br)ccc1F (centres unmarked) [Compound 437]
[Q] CCCCC1C(c2ccccc2)=C(O)C(=O)N1CCCn1ccnc1 (centres unmarked) [Compound 107]
[R] CCCC(=O)C1=C(O)C(=O)N(c2ccc3[nH]cnc3c2)C1c1ccc(-c2ccccn2)cc1 (centres unmarked) [Compound 387]
**Q:** Rank entries according to their pIC50, from the largest number down. Put the labels in the requested order and list them out.
**A:** R, P, Q
(R: 8.92, P: 6.93, Q: 6.28)

[A] Cc1ccc(C2C(c3c[nH]c4ccccc34)=C(O)C(=O)N2CCCn2ccnc2)cc1C (centres unmarked) [Compound 123]
[B] CC(=O)C1=C(O)C(=O)N(c2ccc3[nH]cnc3c2)C1c1ccc2cccc(O)c2n1 (centres unmarked) [Compound 277]
**Q:** For the two items A and B , which reports the higher pIC50 value? Lab log: write the label of the selected item as the result.
**A:** B
(B: 8.24, A: 6.25)

[A] O=C1C(O)=C(c2ccccc2)C(c2ccc3[nH]ccc3c2)N1CCCn1ccnc1 (centres unmarked) [Compound 85]
[B] O=C1C(O)=C(c2ccccc2)C(c2cnc3ccccc3c2)N1c1ccc2[nH]cnc2c1 (centres unmarked) [Compound 420]
**Q:** // pick min by pIC50: A , B Lab log: write the label of the selected item as the result.
**A:** A

====

target_or_system: hQC (Homo sapiens, UniProt Q16769)
Sequence (Q16769 29-361): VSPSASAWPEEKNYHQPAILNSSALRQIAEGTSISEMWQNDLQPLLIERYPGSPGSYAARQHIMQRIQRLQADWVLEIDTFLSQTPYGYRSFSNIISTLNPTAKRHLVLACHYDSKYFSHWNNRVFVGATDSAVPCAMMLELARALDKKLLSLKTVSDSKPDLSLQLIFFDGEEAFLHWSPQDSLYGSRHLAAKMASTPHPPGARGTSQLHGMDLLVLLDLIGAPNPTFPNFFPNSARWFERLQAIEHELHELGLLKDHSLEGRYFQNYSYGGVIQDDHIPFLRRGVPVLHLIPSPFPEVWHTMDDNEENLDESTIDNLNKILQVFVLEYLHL
assay_overview: Inhibitor assay for glutaminyl cyclase activity (fluorometric, H-Gln-βNA / H-Gln-AMC)
Assay type: biochemical
condition_context: read-out: IC50
endpoint_name: IC50 (nM)

compound	IC50 / nM
O=C1C(O)=C(c2ccccc2)C(C2CCC=CO2)N1CCCn1ccnc1 (centres unmarked)	40
O=C1C(O)=C(c2ccc(O)cc2)C(c2cccc(Cl)c2)N1CCCn1ccnc1 (centres unmarked)	40
O=C1C(O)=C(c2ccc(O)cc2)C(c2cc[nH]n2)N1CCCn1ccnc1 (centres unmarked)	40
O=C1C(O)=C(c2ccccc2)C(c2cc3ccccc3nc2Cl)N1c1ccc2[nH]cnc2c1 (centres unmarked)	4090
Cc1cccc(C2C(C(=O)c3ccsc3)=C(O)C(=O)N2c2ccc3[nH]cnc3c2)n1 (centres unmarked)	400
CC1=C(O)C(=O)N(CCCn2ccnc2)C1C (centres unmarked)	6700
CC1=C(O)C(=O)N(c2ccc3[nH]cnc3c2)C1c1cnc2ccccc2c1 (centres unmarked)	1750
CCC1=C(O)C(=O)N(CCCn2ccnc2)C1/C=C/c1ccccc1 (centres unmarked)	5800
O=C1C(O)=C(c2ccc(O)cc2)C(c2cccc(F)c2)N1c1ccc2[nH]cnc2c1 (centres unmarked)	670
CCCCCC(=O)C1=C(O)C(=O)N(c2ccc3[nH]cnc3c2)C1CC (centres unmarked)	4000

[P] CCCC(=O)C1=C(O)C(=O)N(c2ccc3[nH]cnc3c2)C1c1ccc(-c2ccccn2)cc1 (centres unmarked)
[Q] Cc1ccc2c(C3C(c4ccccc4)=C(O)C(=O)N3CCCn3ccnc3)c[nH]c2c1 (centres unmarked)
[R] CC1=C(O)C(=O)N(CCCn2ccnc2)C1c1ccccc1F (centres unmarked)
**Q:** Rank the items in ascending order with respect to IC50. Put the labels in the requested order and list them out.
**A:** P, Q, R

====

target_or_system: hQC (Homo sapiens, UniProt Q16769)
assay_overview: Inhibitor assay for glutaminyl cyclase activity (fluorometric, H-Gln-βNA / H-Gln-AMC)
Format: biochemical
condition_context: read-out: IC50
pIC50: −log10 of the molar value.
endpoint_name: pIC50

compound	pIC50
O=C1C(O)=C(c2ccccc2)C(c2ncc[nH]2)N1CCCn1ccnc1 (centres unmarked)	5.89
CC1=C(O)C(=O)N(c2ccc3nc[nH]c3c2)C1c1cccc(F)c1F (centres unmarked) [Compound 259]	5.89
CC1=C(O)C(=O)N(CCCn2ccnc2)C1c1c(O)ccc2ccccc12 (centres unmarked)	5.66
CC(C)(C)C(=O)C1=C(O)C(=O)N(c2ccc3[nH]cnc3c2)C1c1cc(F)cc(F)c1F (centres unmarked)	5.31
CCC1C(C(C)=O)=C(O)C(=O)N1c1ccc2[nH]cnc2c1 (centres unmarked)	5.56

[a] O=C1C(O)=C(c2c[nH]c3ccccc23)C(c2ccc(CO)o2)N1CCCn1ccnc1 (centres unmarked)
[b] CC1=C(O)C(=O)N(CCCn2ccnc2)C1c1ccc(CO)o1 (centres unmarked)
[c] CC1C(F)=C(O)C(=O)N1CCCn1ccnc1 (centres unmarked)
[d] CCC1=C(O)C(=O)N(CCCn2ccnc2)C1C(O)CO (centres unmarked)
**Q:** Rank entries according to their pIC50, from the largest number down. Put the labels in the requested order and list them out.
**A:** d, a, b, c

====

target_or_system: UniProt:Q16769
assay_overview: Inhibitor assay for glutaminyl cyclase activity (fluorometric, H-Gln-βNA / H-Gln-AMC)
Assay type: biochemical
condition_context: read-out: IC50
pIC50: −log10 of the molar value.
endpoint_name: pIC50

[P] CCCCCC1=C(O)C(=O)N(CCCn2ccnc2)C1C(F)(F)F (centres unmarked)
[Q] CCC1C(c2ccc(O)cc2)=C(O)C(=O)N1CCCn1ccnc1 (centres unmarked)
**Q:** For the two items P and Q , which reports the higher pIC50 value? Lab log: write the label of the selected item as the result.
**A:** P
(P: 7.40, Q: 6.40)

[a] CCC1=C(O)C(=O)N(CCCn2ccnc2)C1c1c[nH]c2ccccc12 (centres unmarked)
[b] CCC/C=C/C1C(c2ccc(O)cc2)=C(O)C(=O)N1CCCn1ccnc1 (centres unmarked)
**Q:** // pick min by pIC50: a , b Lab log: write the label of the selected item as the result.
**A:** b
(b: 5.89, a: 7.40)
